Measured Target: Cytochrome P450 2D6 (Homo sapiens) (UniProt P10635)
Sequence (P10635 whole entry, looked up): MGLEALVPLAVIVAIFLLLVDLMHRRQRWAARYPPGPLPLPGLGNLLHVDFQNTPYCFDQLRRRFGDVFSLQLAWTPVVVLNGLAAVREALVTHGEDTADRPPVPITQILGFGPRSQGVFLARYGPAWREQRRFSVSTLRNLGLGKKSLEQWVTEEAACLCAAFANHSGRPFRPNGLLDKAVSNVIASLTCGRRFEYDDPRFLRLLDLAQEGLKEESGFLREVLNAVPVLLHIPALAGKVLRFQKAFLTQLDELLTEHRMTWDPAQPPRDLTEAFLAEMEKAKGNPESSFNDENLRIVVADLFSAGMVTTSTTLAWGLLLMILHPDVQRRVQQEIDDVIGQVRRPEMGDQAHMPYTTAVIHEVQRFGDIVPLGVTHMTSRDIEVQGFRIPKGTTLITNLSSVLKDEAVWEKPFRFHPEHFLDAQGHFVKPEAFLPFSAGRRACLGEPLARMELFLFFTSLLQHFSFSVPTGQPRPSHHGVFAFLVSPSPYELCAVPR
Method Description: Cytochrome P450 Family 2 Subfamily D Member 6 (CYP2D6) small molecule antagonists: luciferase reporter qHTS assay (AID 1671196); also: nearly all actives have a fitted effect of over 50% in size
Condition Notes: P450-Glo CYP2D6 enzyme assay, luciferin luminescence, 1 h; series mostly up to 115 µM
Records with an inconclusive call do not appear. Calls of active or inactive are those of the source. Calls follow the shape of the dose curve; as a rule, active = well fitted inhibition curve with a large enough effect in the repeat runs; inconclusive = weak or mixed curves; inactive = no such curve, though single readings can be large or run the other way.
Pick one: t for active, f for inactive

Asked: # fetch the recorded call for COc1ccccc1N1CCN(CCCNc2cc(=O)n(C)c(=O)n2C)CC1 here
Given back: t

Asked: What was the test verdict on CC(=O)OC(C)OC(C)=O ?
Given back: f

Asked: Write down the call the test reported for this compound. Item: CCN(CC)CCNC(=O)COc1ccc(Cl)cc1
Given back: t

Asked: Called result for CCN[C@H]1CN(CCCOC)S(=O)(=O)c2sc(S(N)(=O)=O)cc21
Given back: f

Asked: Please let me know the test result on file for NC/C=C/C(=O)O .
Given back: f

Asked: Field: outcome | Entry: COc1cc(Cl)ccc1Cl
Given back: f

Asked: So what was the verdict on CN1CCN(C2=Nc3ccccc3Oc3ccc(Cl)cc32)CC1 in this test?
Given back: t

Asked: Look up the recorded call for Nc1ccc2ccccc2c1S(=O)(=O)O in this test.
Given back: t

New cases:
Asked: Write down the call the test reported for this compound. Item: COc1cc2c(cc1N)oc1ccccc12
Given back: t

Asked: Short answer needed: outcome of this test for CN(C)CCOc1ccccc1Cc1ccccc1 ?
Given back: f

Asked: Hello, I am checking results. What call was entered for Cc1ccsc1C(=CCCN1CCC[C@@H](C(=O)O)C1)c1sccc1C ?
Given back: f

Asked: What was the test verdict on CN(CC1(C)CCCO1)S(=O)(=O)c1ccc(Cl)c(S(N)(=O)=O)c1 (stereo not drawn) ?
Given back: f

Asked: Dear colleague, could you share the recorded outcome for Cc1ccc(C)c(N)c1 when you have a moment?
Given back: t

----------
Measured Target: Cytochrome P450 2D6 (Homo sapiens)
Method Description: Cytochrome P450 Family 2 Subfamily D Member 6 (CYP2D6) small molecule antagonists: luciferase reporter qHTS assay (AID 1671196); also: nearly all actives have a fitted effect of over 50% in size
Condition Notes: P450-Glo CYP2D6 enzyme assay, luciferin luminescence, 1 h; series mostly up to 115 µM
Text: U.S. Tox21 Program National Center for Advancing Translational Sciences [NCATS] U.S. Environmental Protection Agency [EPA] National Institutes of Environmental Health Sciences [NIEHS] National Toxicology Program [NTP] U.S. Food and Drug Administration [FDA] […] The luciferin products formed are detected with a luciferin detection reagent, and the amount of light produced is proportional to CYP activity. […]
Records with an inconclusive call do not appear. Active and inactive are the calls of the source. Calls come from the whole dose curve; as a rule, active = well fitted inhibition curve with a large enough effect in the repeat runs; inconclusive = weak or mixed curves; inactive = no such curve, though single readings can be large or run the other way.
Give your call using only these classes: TRUE for active, FALSE for inactive

Observe how each entry below is paired with its result.
Asked: Kindly provide the recorded test outcome for the following molecule: CC(C)(C)c1ccc(OC(=O)c2ccccc2O)cc1
Given back: FALSE

Asked: How did this test come out for CC(=O)O[C@H]1CC[C@@]2(C)C(=CC[C@@H]3[C@@H]2CC[C@]2(C)C(C(C)=O)=CC[C@@H]32)C1 ?
Given back: FALSE

Asked: How did this test come out for C[C@@H](N)C(=O)O ?
Given back: FALSE

Asked: Assay result, entry CCCc1c2oc(C(=O)O)cc(=O)c2cc2c(=O)cc(C(=O)O)n(CC)c12 — outcome?
Given back: FALSE

Asked: // outcome(item) with item = C=C(C)C(=O)OCCOP(=O)(O)O
Given back: FALSE

Asked: How did this test come out for CCOC(=O)C1CC(=O)C(=C(O)C2CC2)C(=O)C1 (stereo not given) ?
Given back: FALSE

Asked: Outcome logged for O=C(C(Cl)Cl)N1CCOC12CCCCC2 in this assay:
Given back: FALSE

Asked: Please indicate how the test categorized C=CCCCCCCCCO .
Given back: FALSE

Continuing:
Asked: Tell me the assay call for CCCN(CCC)C(=O)C(CCC(=O)O)NC(=O)c1ccccc1 (stereo not given) please.
Given back: FALSE

Asked: What classification did NS(=O)(=O)c1cc(-c2nn[nH]n2)c(NCc2cccs2)cc1Cl end up with in this test?
Given back: FALSE

----------
Method Description: A CellTox Green Cytotoxicity Assay to monitor cytotoxicity in HEK293 cells - 16 hour (AID 1224888); also: nearly all actives have a fitted effect of over 35% in size
Condition Notes: CellTox Green fluorescence; series mostly up to 76.8 µM
Records with an inconclusive call do not appear. The source made the active and inactive calls. The call rests on the fitted dose curve; in most records, active means well fitted activation curve with a large enough effect in the repeat runs; inconclusive means weak or mixed curves; inactive means flat fitted curve, though single readings scatter.
Reported Endpoint: activity change

Asked: Return reported activity change; argument: CCCNC(C)(C)COC(=O)c1ccccc1
Given back: inactive

Asked: Sample Cc1cc2c(s1)Nc1ccccc1N=C2N1CCN(C)CC1 — what was its activity change?
Given back: inactive

Asked: Form field: reported activity change of CCCCN1C[C@H](O)[C@@H](O)[C@H](O)[C@H]1CO
Given back: inactive

Asked: Quick check: activity change of CCCCC(CC)COC(=O)COc1cc(Cl)c(Cl)cc1Cl (stereo not drawn) ?
Given back: inactive

Further cases:
Asked: Need activity change of O=C(O)C(=O)Cc1c[nH]c2ccccc12 , thanks.
Given back: inactive

Asked: Return reported activity change; argument: NCCC(O)(P(=O)(O)O)P(=O)(O)O
Given back: inactive

----------
Method Description: qHTS assay to identify small molecule agonists of the peroxisome proliferator-activated receptor delta (PPARd) signaling pathway - cell viability counter screen (AID 743211); also: nearly all actives have a fitted effect of over 55% in size
Condition Notes: PPARd-bla HEK293H viability, CellTiter-Glo luminescence, 17 h; series mostly up to 62.6 µM
Results filed as inconclusive are left out. Activity calls are given as the source filed them. The call rests on the fitted dose curve; in most records, active means well fitted cell-killing curve with a large enough effect in the repeat runs; inconclusive means weak or mixed curves; inactive means no such curve, though single readings can be large or run the other way.
Write down one outcome, taken from Y for active, N for inactive

Previously resolved entries follow.
Asked: In this assay, the call recorded for Cc1ccc([N+](=O)[O-])cc1Cl was what?
Given back: N

Asked: Lab log entry: C[C@@H]1CN(c2c(F)c(N)c3c(=O)c(C(=O)O)cn(C4CC4)c3c2F)C[C@H](C)N1 — outcome as called in the assay?
Given back: N

Asked: Returns: the outcome recorded for CCCS(=O)c1ccc2nc(NC(=O)OC)[nH]c2c1 (configuration not stated) in this assay.
Given back: N

Asked: How did this test come out for C=CC1CO1 (configuration not stated) ?
Given back: N

Asked: Record lookup: outcome of this test for O=C(O)c1cccc(Cl)c1Cl ?
Given back: N

Asked: What is the recorded call for this compound in the test? CCOc1ccc(OCC)c(Cl)c1
Given back: N

Asked: Assay outcome for CC(=O)OC(C)OC(C)=O : what was it?
Given back: N

Asked: Which outcome did this test record for the compound CN(C)C(=O)NC1(c2ccccc2)CCN(CCC[C@]2(c3ccc(Cl)c(Cl)c3)CCCN(C(=O)c3ccccc3)C2)CC1 ?
Given back: Y

Others:
Asked: # fetch the recorded call for CN1C(=O)CC(c2ccccc2)C1=O (configuration not stated) here
Given back: N

Asked: Which outcome was assigned to CCC(=O)Nc1ccc(O)cc1 in this test?
Given back: N

Asked: State the result this test recorded for CCCOCCC .
Given back: N

Asked: Would you mind telling me which call this test gave CCCCCCCCCCCCCCCCOP(=O)([O-])OCC[N+](C)(C)C ?
Given back: N

----------
Measured Target: Estrogen receptor (Homo sapiens) (UniProt P03372)
Sequence (P03372 whole entry, looked up): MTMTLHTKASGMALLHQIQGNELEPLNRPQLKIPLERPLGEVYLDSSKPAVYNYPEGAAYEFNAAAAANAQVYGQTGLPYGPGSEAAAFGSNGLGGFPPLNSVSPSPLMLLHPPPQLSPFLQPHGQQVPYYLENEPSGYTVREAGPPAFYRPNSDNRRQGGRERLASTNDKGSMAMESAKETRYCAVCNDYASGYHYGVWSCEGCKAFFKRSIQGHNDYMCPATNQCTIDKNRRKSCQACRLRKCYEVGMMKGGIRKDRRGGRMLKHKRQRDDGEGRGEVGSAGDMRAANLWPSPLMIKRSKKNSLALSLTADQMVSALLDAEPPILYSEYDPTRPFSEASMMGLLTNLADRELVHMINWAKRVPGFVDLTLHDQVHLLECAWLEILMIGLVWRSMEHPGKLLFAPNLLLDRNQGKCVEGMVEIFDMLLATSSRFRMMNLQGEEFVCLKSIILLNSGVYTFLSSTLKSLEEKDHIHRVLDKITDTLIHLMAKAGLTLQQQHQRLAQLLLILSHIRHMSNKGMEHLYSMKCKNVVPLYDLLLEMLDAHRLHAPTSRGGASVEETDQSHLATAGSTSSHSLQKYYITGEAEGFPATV
Method Description: qHTS assay to identify small molecule agonists of the estrogen receptor alpha (ER-alpha) signaling pathway using the BG1 cell line (AID 743079); also: nearly all actives have a fitted effect of over 20% in size
Condition Notes: BG1Luc4E2 cells, ERE-luciferase agonist, 22 h; series mostly up to 70.3 µM
Results filed as inconclusive are left out. Activity calls are given as the source filed them. The call rests on the fitted dose curve; in most records, active means well fitted activation curve with a large enough effect in the repeat runs; inconclusive means weak or mixed curves, or effect the other way; inactive means no such curve, though single readings can be large or run the other way.
Answer with one of the outcomes true (1) (active), false (0) (inactive)

Asked: Could you kindly confirm the outcome this assay logged for CC(C)(C)C1CCCCC1=O (stereo not given) ?
Given back: false (0)

Asked: What call does the record list for CCCc1c2oc(C(=O)O)cc(=O)c2cc2c(=O)cc(C(=O)O)n(CC)c12 ?
Given back: false (0)

Asked: Dear all, I need the recorded test outcome for Cc1cc(NS(=O)(=O)c2ccc(N)cc2)nc(C)n1 , thank you.
Given back: false (0)

Asked: Which outcome was assigned to CCCCCCCOC(=O)CCC in this test?
Given back: false (0)

Asked: Test call, this compound: O=C1CCCCC1C1CCCCC1 (stereo not given)
Given back: false (0)

More entries:
Asked: In this assay, the call recorded for CC/C=C\CCOC(=O)C(C)C was what?
Given back: false (0)

Asked: Could you check what this test reported for c1ccc(CN(CC2=NCCN2)c2ccccc2)cc1 ?
Given back: false (0)

Asked: # fetch the recorded call for CCCCCCCCOC(=O)CCCCCCCCC(=O)OCCCCCCCC here
Given back: false (0)

Asked: For CCCCc1ccc2nc(NC(=O)OC)[nH]c2c1 , which call appears in the assay record?
Given back: true (1)

Asked: GET /call?item= CCN[C@H]1CN(CCCOC)S(=O)(=O)c2sc(S(N)(=O)=O)cc21 returns the recorded outcome of this test.
Given back: false (0)

Asked: In this assay, the call recorded for CN1CCN(c2c(F)cc3c(=O)c(C(=O)O)cn4c3c2SCC4)CC1 was what?
Given back: false (0)

Asked: Given CCCCNc1ccc(C(=O)OCCN(CC)CC)cc1 , state the outcome it received in this test.
Given back: false (0)
